assay comment: Metabolic stability in human liver microsomes assessed as half life at 1 uM incubated for 60 mins by LC-MS/MS analysis
Assay type: ADME, Microsome
condition parameters: liver microsomes
Assign half-life at 1 µM to each entry below.

State its half-life at 1 µM: O=C(N[C@@H]1CCCc2c1cnn2-c1ccccc1F)c1ccccn1
> 1 h

Complete the entry with half-life at 1 µM for O=C(N[C@@H]1CCCc2c1cnn2-c1ccccc1F)c1ncn2c1CCCC2
> 1 h

Look up half-life at 1 µM of O=C(N[C@@H]1CCCc2c1cnn2-c1ccccc1F)c1onc2c1CCCC2 and report it.
1.42 h

Supply recorded half-life at 1 µM for Cc1ccccc1-n1ncc2c1CCC[C@H]2NC(=O)c1noc2c1CCCC2 here.
0.383 h

Kindly indicate its recorded half-life at 1 µM. Item: Cc1c(-c2ccc(-c3ccccc3F)cc2)nc2ccc(F)cc2c1C(=O)O [BREQUINAR]
> 1 h

Please list half-life at 1 µM recorded for the molecule Cc1ccnc(C(=O)N[C@@H]2CCCc3c2cnn3-c2ccccc2C)c1
> 1 h

---

measured target: Dihydroorotate dehydrogenase (quinone), mitochondrial (Homo sapiens, UniProt Q02127)
Sequence (Q02127 whole entry, the tested form may be a part): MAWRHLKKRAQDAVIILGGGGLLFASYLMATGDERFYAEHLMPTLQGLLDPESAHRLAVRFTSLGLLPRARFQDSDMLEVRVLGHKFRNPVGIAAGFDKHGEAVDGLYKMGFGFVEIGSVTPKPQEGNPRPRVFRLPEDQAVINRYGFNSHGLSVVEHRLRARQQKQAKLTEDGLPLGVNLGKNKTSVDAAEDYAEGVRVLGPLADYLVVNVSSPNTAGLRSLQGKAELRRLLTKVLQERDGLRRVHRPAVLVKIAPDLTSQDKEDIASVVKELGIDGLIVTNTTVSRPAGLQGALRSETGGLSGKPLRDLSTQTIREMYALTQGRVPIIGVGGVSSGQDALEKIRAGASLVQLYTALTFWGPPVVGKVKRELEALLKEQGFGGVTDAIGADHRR
assay comment: Inhibition of recombinant human N-terminal His-tagged DHODH (31 to 395 residues) expressed in Escherichia coli expression system using dihydroorotic acid as substrate by DCIP assay
measurement name: IC50 (µM)
Lab book: enter the figure in µM, no units written.

Supply reported IC50 belonging to this compound: O=C(N[C@H]1CCCc2c1cnn2-c1ccccc1F)c1onc2c1CCCC2
6.5

---

assay comment: Metabolic stability in CD-1 mouse liver microsomes assessed as half life at 1 uM incubated for 60 mins by LC-MS/MS analysis
Format: ADME, Microsome
condition parameters: CD-1, mouse, liver microsomes
Please assign class 0 whenever half-life at 1 µM is at or above 8 min, and class 1 whenever it is below.

Is 8 min strictly greater than the compound's reported half-life at 1 µM? compound: Cc1ccccc1-n1ncc2c1CCC[C@H]2NC(=O)c1noc2c1CCCC2
class 1

Is it true that half-life at 1 µM reported for Cc1ccnc(C(=O)N[C@@H]2CCCc3c2cnn3-c2ccccc2C)c1 is less than 8 min?
class 0

hey, is half-life at 1 µM for O=C(N[C@@H]1CCCc2c1cnn2-c1ccccc1F)c1cc(C(F)(F)F)ccn1 lower than 8 min or not?
class 0

Confirm or reject: half-life at 1 µM of O=C(N[C@@H]1CCCc2c1cnn2-c1ccccc1F)c1ncn2c1CCCC2 lies strictly below 8 min
class 0

Lab log: compare recorded half-life at 1 µM with 8 min; is it strictly lower for O=C(N[C@@H]1CCCc2c1cnn2-c1ccccc1F)c1ccccn1 ?
class 1

---

Answer each item with its documented pIC50.
measured target: UniProtKB Q02127
assay comment: Inhibition of recombinant human DHODH using dihydroorotic acid as substrate measured for 68 mins by DCIP based colorimetric assay
pIC50: −log10 of the molar value.

Tell us which pIC50 value is on record for O=C(N[C@@H]1CCCc2c1cnn2-c1ccccc1F)c1ncn2c1CCCC2
> 8.30

Query pIC50 for COC(=O)c1ccc(C(=O)NC2CCCc3c2cnn3-c2ccccc2F)nc1 (racemic)
< 5.00

---

measured target: Dihydroorotate dehydrogenase (quinone), mitochondrial (Homo sapiens, UniProt Q02127)
assay comment: Inhibition of recombinant human DHODH using dihydroorotic acid as substrate in presence of 2 nM of DHODH by DCIP assay
measurement name: IC50 (nM)
Lab book: enter the figure in nM, no units written.

Consider the molecule O=C(N[C@@H]1CCCc2c1cnn2-c1ccccc1F)c1ncn2c1CCCC2 and give its recorded IC50.
2.3

---

assay comment: Kinetic aqueous solubility of compound in Prima HT solution at pH 7.4 incubated for 4 hrs by UV-spectrophotometry
Type: physicochemical
condition parameters: read-out: Kinetic_solubility
Provide the recorded solubility kinetic at 4 h for the entries that follow.
The figure you give is taken to be in µM; do not add the unit.

Read off the recorded solubility kinetic at 4 h for O=C(N[C@@H]1CCCc2c1cnn2-c1ccccc1F)c1onc2c1CCCC2
15

Tell me its solubility kinetic at 4 h given Cc1ccnc(C(=O)N[C@@H]2CCCc3c2cnn3-c2ccccc2C)c1 as the entry.
110

Please look at this compound and report its solubility kinetic at 4 h: Cc1ccccc1-n1ncc2c1CCC[C@H]2NC(=O)c1noc2c1CCCC2
10

Specify reported solubility kinetic at 4 h for the compound shown: Cc1c(-c2ccc(-c3ccccc3F)cc2)nc2ccc(F)cc2c1C(=O)O
110

Answer with reported solubility kinetic at 4 h of O=C(N[C@@H]1CCCc2c1cnn2-c1ccccc1F)c1ncn2c1CCCC2
74

The measurements presented in this section are drawn from ChEMBL document CHEMBL4613263.
